Data credit: the supplement of paper PMC10724198

Tested on: Saccharomyces cerevisiae
Assay: protein stability index of tFT-peptide fusion (C-terminal peptide) (PSI (0-1 scale)); higher = more stable (slower turnover)
Details: genetic background: wild type; temperature: 30 C
Listing: protein stability index of selected sequences
Form: value (number only, do not type unit).

Known protein stability index results, listed for orientation:
{"constructSequence": "SFCACDRYRIGV", "protein stability index": 0.727}
{"constructSequence": "EEKQLNKIKRKI", "protein stability index": 0.662}
{"constructSequence": "AGGGLGGGGGGP", "protein stability index": 0.729}

Query: System Saccharomyces cerevisiae. Read-out protein stability index. Item "SLVAFAKMANFV" . Report value.
Reply: 0.633

Query: System Saccharomyces cerevisiae. Read-out protein stability index. Item "LPVSGLRAAGAM" . Report value.
Reply: 0.715

Query: System Saccharomyces cerevisiae. Read-out protein stability index. Item "RKKRNKQENETK" . Report value.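 Further: PSI is a weighted mean of sequencing reads over stability bins, variants kept only with over 10 reads, mCherry proximal and sfGFP distal, peptide attached via GGGS linker.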
Reply: 0.748
